Assay: The drug is tested on Z-016 corresponding to mouse gut metagenome with ENA study accession number: PRJEB37062 and ENA sample accession number: ERS12561815 for biotransformation under anaerobic condition. The drug concentrations were measured over 9 timepoints collected between 0 and 24 hours of incubation by liquid-chromatography-coupled mass spectrometry (LC–MS); further: call rule not given here
Conditions: 2 µM
experimentalReadout: Bacterial Biotransformation

[[record]]
compound = "CN(C)CCC=C1c2ccccc2C=Cc2ccccc21"
experimentalreadout = "Bacterial Biotransformation"
testresult = "Compound NOT metabolized"

[[record]]
compound = "CCCCC1=NC2(CCCC2)C(=O)N1Cc1ccc(-c2ccccc2-c2nnn[nH]2)cc1"
experimentalreadout = "Bacterial Biotransformation"
testresult = "Compound NOT metabolized"

[[record]]
compound = "CC[C@H](C)C(=O)O[C@H]1C[C@@H](C)C=C2C=C[C@H](C)[C@H](CC[C@@H]3C[C@@H](O)CC(=O)O3)[C@H]21"
experimentalreadout = "Bacterial Biotransformation"
testresult = "Compound NOT metabolized"

[[record]]
compound = "CCN(CC)CC#CCOC(=O)C(O)(c1ccccc1)C1CCCCC1.Cl (configuration not stated) [OXYBUTYNIN CHLORIDE]"
experimentalreadout = "Bacterial Biotransformation"
testresult = "Compound NOT metabolized"

[[record]]
compound = "Cc1nc(-c2ccc(OCC(C)C)c(C#N)c2)sc1C(=O)O"
experimentalreadout = "Bacterial Biotransformation"
testresult = "Compound metabolized"


Name the reported Bacterial Biotransformation value associated with the compound C=CCN1CC[C@]23c4c5ccc(O)c4O[C@H]2C(=O)CC[C@@]3(O)[C@H]1C5
Compound NOT metabolized

Name the reported Bacterial Biotransformation value associated with the compound CC(C)(C(=O)O)c1ccc(C(O)CCCN2CCC(C(O)(c3ccccc3)c3ccccc3)CC2)cc1 (configuration not stated) [FEXOFENADINE]
Compound NOT metabolized

Name the reported Bacterial Biotransformation value associated with the compound c1ccc([C@H]2CN3CCSC3=N2)cc1
Compound NOT metabolized

Name the reported Bacterial Biotransformation value associated with the compound CCN(CC)CCOC(=O)C(Cc1cccc2ccccc12)CC1CCCO1.O=C(O)C(=O)O (configuration not stated) [NAFRONYL OXALATE]
Compound metabolized

Name the reported Bacterial Biotransformation value associated with the compound CN(C)C(=O)C(CCN1CCC(O)(c2ccc(Cl)cc2)CC1)(c1ccccc1)c1ccccc1 [LOPERAMIDE]
Compound metabolized
